- System: MDA-MB-435
- ASSAY: NCI tumour cell line growth inhibition, 48 h
Calls of active or inactive are those of the source. No stated cut-off is given here; in the data, active = GI50 up to about 1.1 µM and inactive = higher.
GI50: recorded values
QUANTITY_KIND: GI50

>>> print(df.to_string())
                                    molecule         readout_value
 0  c1ccc(C[n+]2cccc(-c3cc4ccccc4[nH]3)c2)cc1    18.5 µM (inactive)
 1        Clc1sc(Cl)c2c1[C@@H](Cl)C[C@@H]2Cl      92 µM (inactive)
 2  C=C[C@]1(C)C[C@@H](OC(=O)CO)[C@@]2(C)[C@H](C)CC[C@]3(CCC(=O)[C@H]32)[C@@H](C)[C@@H]1O  > 68.1 µM (inactive)
 3  CCN(CC)CC1CCCCN1CC(=O)N1c2ccc(Br)cc2C(=O)Nc2cccnc21 (stereo unspecified)   > 100 µM (inactive)
 4  Cc1ccc(C2SCC(=O)N2c2ccc(-c3ccc(-n4c(-c5ccccc5)nc5ccccc5c4=O)cc3)cc2)cc1 (stereo unspecified)    88.3 µM (inactive)
 5  Cc1ccccc1NC(=O)NC(Oc1ccccc1)(C(F)(F)F)C(F)(F)F   > 100 µM (inactive)
 6  C/C(=N/NC(=S)Nc1ccc(Cl)cc1)c1cccc(/C(C)=N\NC(=S)Nc2ccc(Cl)cc2)n1    12.3 µM (inactive)
 7  O=S(=O)(O)c1ccc(/N=N/c2ccc3c(S(=O)(=O)O)cccc3c2O)c2ccccc12   > 100 µM (inactive)
 8  Cc1c(N2C(=O)C(Cl)C2c2ccc(Cl)cc2)c(=O)n(-c2ccccc2)n1C (stereo unspecified)    23.4 µM (inactive)
 9     Cc1cc2oc3c(ccc(=O)n3C)c(=O)c2c(C)c1Cl    28.1 µM (inactive)
10  CCOP(=O)(OCC)C1=C(c2ccccc2)OC(N)=C(C#N)C1c1ccc(Cl)cc1 (stereo unspecified)   > 100 µM (inactive)
11  CCOc1ncn(-c2ccc(NC(=S)NC3OC(CO)C(O)C(O)C3O)cc2)n1 (stereo unspecified)   > 100 µM (inactive)
12             Cc1ccc(S(=O)(=O)n2cncc2CO)cc1   > 100 µM (inactive)
13  O=C(CCCn1ccnc1[N+](=O)[O-])NCCn1cnc([N+](=O)[O-])c1   > 100 µM (inactive)
14  CN(C)c1ccc(-c2c(C#N)c(S)n(NS(=O)(=O)c3ccccc3)c(=O)c2C#N)cc1    21.5 µM (inactive)
15  CCOC(=O)NN(C(=O)OCC)C(=C(C1=CCCCC1)N1CCOCC1)N(NC(=O)OCC)C(=O)OCC   > 100 µM (inactive)
16       NC(=S)N/N=C\CC(O)(C(F)(F)F)C(F)(F)F    > 10 µM (inactive)
17  CC(=O)N1N=C(c2ccc3ccccc3c2O)CC1c1ccc(Cl)cc1Cl (stereo unspecified)    25.4 µM (inactive)
18  [O-][S+](Nc1ccccc1)c1cccc(Cl)c1 (stereo unspecified)    72.1 µM (inactive)
19  CC1(C)OCC(C2CCC3(C)C4=CCC5C(C)(C)C(O)CCC5(C)C4CCC23C)CC(O)C1O (stereo unspecified)    16.4 µM (inactive)
20  COc1ccc(C(C)NNC(=O)c2cc[n+]([BH2-]C#N)cc2)cc1OC (stereo unspecified)   > 100 µM (inactive)
21         COCn1c(C)c(C)c2c(=O)oc(=O)[nH]c21   > 100 µM (inactive)
22          O=C(/N=N/c1ccccc1Br)NNc1ccccc1Br    84.5 µM (inactive)
23  CCCCCCOC(=O)C(N)Cc1ccc(OC)cc1 (stereo unspecified)   > 100 µM (inactive)
24  CC[C@H](NC(=O)OC(C)(C)C)C(=O)NCP(=O)(OCc1ccc([N+](=O)[O-])cc1)OCc1ccc([N+](=O)[O-])cc1    34.9 µM (inactive)
25  O=C(CCc1cc(O)cc(O)c1)NCCc1cc(O)cc(OCc2ccccc2)c1    36.2 µM (inactive)
